experiment: small-molecule binders of probe aInhba, primary screen, biochemical, small-molecule microarray, 635/667 nm fluorescence (AID 1148); conditions: higher = more signal;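 further: score merges 667nm spot fluorescence with signal-to-noise for antibody binding to printed compounds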
Below is a list of entries, each paired with its recorded composite z-score value.
Reply with the value as a number alone.

- COc1ccc([C@H]2C[C@H]3C(Br)=C[C@]2(OC)C(=O)[C@]32CO2)cc1: -0.128
- CC(C)=C1C(=O)C(c2ccccc2)=C2CN3C(=O)N(CCc4ccccc4)C(=O)[C@]3(Cc3ccccc3)[C@H]21: 0.128
- O=C(O)[C@@H]1Cc2c([nH]c3ccccc23)[C@@H](c2ccccc2)N1: -0.164

We next turn to a different molecule, shown below.
Fill in the blank: the reported composite z-score of "NC(=O)NCC#Cc1ccc2c(c1)[C@]1(C(=O)N2)[C@H](C(N)=O)[C@H]2C(=O)O[C@H](c3ccccc3)[C@H](c3ccccc3)N2[C@@H]1c1ccccc1OCCO" is ____.
0.0091

From: PubChem BioAssay
